- Test system: Streptococcus pneumoniae
- assay notes: Antimicrobial activity against Streptococcus pneumoniae isolate 1397 by agar dilution method
- Assay type: functional
Exercise: state measured MIC for each of the compounds provided.

Input: Output reported MIC of the compound "C[C@@H](O)[C@H]1C(=O)N2C(C(=O)O)=C(S[C@H]3CC[S@@+]([O-])C3)S[C@H]12" on Streptococcus pneumoniae.
Output: 0.5 µg/mL

Input: Output reported MIC of the compound C[C@@H](O)[C@H]1C(=O)N2C(C(=O)O)=C(SCCNC=N)C[C@H]12 [IMIPENEM ANHYDROUS] on Streptococcus pneumoniae.
Output: 0.25 µg/mL

Input: Output reported MIC of the compound "C[C@@H](O)[C@H]1C(=O)N2C(C(=O)O)=C(S[C@@H]3CN[C@H](C(=O)N(C)C)C3)[C@H](C)[C@H]12" on Streptococcus pneumoniae.
Output: 0.5 µg/mL

Input: Output reported MIC of the compound "CO/N=C(\C(=O)N[C@@H]1C(=O)N2C(C(=O)O)=C(CSc3nc(=O)c(O)nn3C)CS[C@H]12)c1csc(N)n1" on Streptococcus pneumoniae.
Output: 4 µg/mL

* * *

- System: Streptococcus pneumoniae
- assay notes: Antimicrobial activity against Streptococcus pneumoniae isolate 1146 by agar dilution method
- Format: functional
assay endpoint: MIC (µg/mL)
// note: answer is a bare numeric in µg/mL

Input: Please report MIC for the following compound: "COCC1=C(C(=O)O)N2C(=O)[C@@H](NC(=O)/C(=N\OC)c3csc(N)n3)[C@H]2SC1"
Output: 8

Input: Please report MIC for the following compound: "C[C@@H](O)[C@H]1C(=O)N2C(C(=O)O)=C(S[C@@H]3CN[C@H](C(=O)N(C)C)C3)[C@H](C)[C@H]12"
Output: 1

Input: Please report MIC for the following compound: "C=CC1=C(C(=O)O)N2C(=O)[C@@H](NC(=O)/C(=N\O)c3csc(N)n3)[C@H]2SC1"
Output: 8

Input: Please report MIC for the following compound: "CO/N=C(\C(=O)N[C@@H]1C(=O)N2C(C(=O)O)=C(COC(N)=O)CS[C@H]12)c1ccco1"
Output: 8

Input: Please report MIC for the following compound: "CC[C@H]1OC(=O)[C@H](C)[C@@H](O[C@H]2C[C@@](C)(OC)[C@@H](O)[C@H](C)O2)[C@H](C)[C@@H](O[C@@H]2O[C@H](C)C[C@H](N(C)C)[C@H]2O)[C@](C)(O)C[C@@H](C)CN(C)[C@H](C)[C@@H](O)[C@]1(C)O"
Output: 2

Input: Please report MIC for the following compound: "CC1(C)S[C@@H]2[C@H](NC(=O)Cc3ccccc3)C(=O)N2[C@H]1C(=O)O"
Output: 4

Input: Please report MIC for the following compound: "CC1(C)S[C@@H]2[C@H](NC(=O)[C@H](N)c3ccc(O)cc3)C(=O)N2[C@H]1C(=O)O"
Output: 4

* * *

- Tested on: Streptococcus pneumoniae
- assay notes: Antimicrobial activity against Streptococcus pneumoniae isolate 37 by agar dilution method
- Format: functional
Exercise: state measured MIC for each of the compounds provided.

Input: Please report MIC for the following compound: "C[C@@H](O)[C@H]1C(=O)N2C(C(=O)O)=C(S[C@H]3CC[S@@+]([O-])C3)S[C@H]12"
Output: 1 mg/L

Input: Please report MIC for the following compound: "C[C@@H](O)[C@H]1C(=O)N2C(C(=O)O)=C(S[C@@H]3CN[C@H](C(=O)N(C)C)C3)[C@H](C)[C@H]12"
Output: 1 mg/L

Input: Please report MIC for the following compound: "O=C(O)c1cn(C2CC2)c2cc(N3CCNCC3)c(F)cc2c1=O"
Output: 1 mg/L

Input: Please report MIC for the following compound: "CC[C@H]1OC(=O)[C@H](C)[C@@H](O[C@H]2C[C@@](C)(OC)[C@@H](O)[C@H](C)O2)[C@H](C)[C@@H](O[C@@H]2O[C@H](C)C[C@H](N(C)C)[C@H]2O)[C@](C)(O)C[C@@H](C)CN(C)[C@H](C)[C@@H](O)[C@]1(C)O"
Output: > 64 mg/L

Input: Please report MIC for the following compound: "CC[C@H]1OC(=O)[C@H](C)[C@@H](O[C@H]2C[C@@](C)(OC)[C@@H](O)[C@H](C)O2)[C@H](C)[C@@H](O[C@@H]2O[C@H](C)C[C@H](N(C)C)[C@H]2O)[C@](C)(OC)C[C@@H](C)C(=O)[C@H](C)[C@@H](O)[C@]1(C)O"
Output: > 64 mg/L

Input: Please report MIC for the following compound: COc1c(N2CCNC(C)C2)c(F)cc2c(=O)c(C(=O)O)cn(C3CC3)c12 (stereo not drawn)
Output: 0.5 mg/L

Input: Please report MIC for the following compound: "CC1(C)S[C@@H]2[C@H](NC(=O)[C@H](N)c3ccc(O)cc3)C(=O)N2[C@H]1C(=O)O"
Output: 2 mg/L

Input: Please report MIC for the following compound: "COCC1=C(C(=O)O)N2C(=O)[C@@H](NC(=O)/C(=N\OC)c3csc(N)n3)[C@H]2SC1"
Output: 4 mg/L

Input: Please report MIC for the following compound: "CO/N=C(\C(=O)N[C@@H]1C(=O)N2C(C(=O)O)=C(COC(N)=O)CS[C@H]12)c1ccco1"
Output: 4 mg/L

Input: Please report MIC for the following compound: "CC1(C)S[C@@H]2[C@H](NC(=O)Cc3ccccc3)C(=O)N2[C@H]1C(=O)O"
Output: 4 mg/L

Input: Please report MIC for the following compound: "CO/N=C(\C(=O)N[C@@H]1C(=O)N2C(C(=O)O)=C(CSc3nc(=O)c(O)nn3C)CS[C@H]12)c1csc(N)n1"
Output: 2 mg/L

Input: Please report MIC for the following compound: C[C@@H](O)[C@H]1C(=O)N2C(C(=O)O)=C(SCCNC=N)C[C@H]12 [IMIPENEM ANHYDROUS]
Output: 0.25 mg/L

Input: Please report MIC for the following compound: "C=CC1=C(C(=O)O)N2C(=O)[C@@H](NC(=O)/C(=N\O)c3csc(N)n3)[C@H]2SC1"
Output: 4 mg/L

* * *

- System: Streptococcus pneumoniae
- assay notes: Antimicrobial activity against Streptococcus pneumoniae isolate 1564 by agar dilution method
- Type: functional
Exercise: state measured MIC for each of the molecules provided.
// note: answer is a bare numeric in µg/mL

Input: Please report MIC for the following molecule: "CC1(C)S[C@@H]2[C@H](NC(=O)Cc3ccccc3)C(=O)N2[C@H]1C(=O)O"
Output: 16

Input: Please report MIC for the following molecule: "C[C@@H](O)[C@H]1C(=O)N2C(C(=O)O)=C(S[C@H]3CC[S@@+]([O-])C3)S[C@H]12"
Output: 0.5

Input: Please report MIC for the following molecule: "CC[C@H]1OC(=O)[C@H](C)[C@@H](O[C@H]2C[C@@](C)(OC)[C@@H](O)[C@H](C)O2)[C@H](C)[C@@H](O[C@@H]2O[C@H](C)C[C@H](N(C)C)[C@H]2O)[C@](C)(OC)C[C@@H](C)C(=O)[C@H](C)[C@@H](O)[C@]1(C)O"
Output: 32

* * *

Exercise: state measured MIC for each of the molecules provided.
- System: Streptococcus pneumoniae
- assay notes: Antimicrobial activity against Streptococcus pneumoniae isolate 1564 by agar dilution method
- Assay type: functional
// note: answer is a bare numeric in mg/L

Input: Please report MIC for the following molecule: "C[C@@H](O)[C@H]1C(=O)N2C(C(=O)O)=C(S[C@@H]3CN[C@H](C(=O)N(C)C)C3)[C@H](C)[C@H]12"
Output: 0.125

Input: Please report MIC for the following molecule: "CC1(C)S[C@@H]2[C@H](NC(=O)[C@H](N)c3ccc(O)cc3)C(=O)N2[C@H]1C(=O)O"
Output: 4

Input: Please report MIC for the following molecule: "C=CC1=C(C(=O)O)N2C(=O)[C@@H](NC(=O)/C(=N\O)c3csc(N)n3)[C@H]2SC1"
Output: 32

Input: Please report MIC for the following molecule: "COCC1=C(C(=O)O)N2C(=O)[C@@H](NC(=O)/C(=N\OC)c3csc(N)n3)[C@H]2SC1"
Output: 32

Input: Please report MIC for the following molecule: COc1c(N2CCNC(C)C2)c(F)cc2c(=O)c(C(=O)O)cn(C3CC3)c12 (stereo not given)
Output: 0.5

* * *

Exercise: state measured MIC for each of the molecules provided.
- System: Streptococcus pneumoniae
- assay notes: Antimicrobial activity against Streptococcus pneumoniae 12 by time-kill analysis
- Format: functional
// note: answer is a bare numeric in µg/mL

Input: Output reported MIC of the molecule "CO/N=C(\C(=O)N[C@@H]1C(=O)N2C(C(=O)O)=C(COC(N)=O)CS[C@H]12)c1ccco1" on Streptococcus pneumoniae.
Output: 4

Input: Output reported MIC of the molecule C[C@@H](O)[C@H]1C(=O)N2C(C(=O)O)=C(SCCNC=N)C[C@H]12 [IMIPENEM ANHYDROUS] on Streptococcus pneumoniae.
Output: 0.25

Input: Output reported MIC of the molecule COc1c(N2CCNC(C)C2)c(F)cc2c(=O)c(C(=O)O)cn(C3CC3)c12 (configuration not stated) on Streptococcus pneumoniae.
Output: 0.25

Input: Output reported MIC of the molecule "CC1(C)S[C@@H]2[C@H](NC(=O)[C@H](N)c3ccc(O)cc3)C(=O)N2[C@H]1C(=O)O" on Streptococcus pneumoniae.
Output: 1

Input: Output reported MIC of the molecule "CC[C@H]1OC(=O)[C@H](C)[C@@H](O[C@H]2C[C@@](C)(OC)[C@@H](O)[C@H](C)O2)[C@H](C)[C@@H](O[C@@H]2O[C@H](C)C[C@H](N(C)C)[C@H]2O)[C@](C)(O)C[C@@H](C)CN(C)[C@H](C)[C@@H](O)[C@]1(C)O" on Streptococcus pneumoniae.
Output: 0.12

Input: Output reported MIC of the molecule "CC[C@H]1OC(=O)[C@H](C)C(=O)[C@H](C)[C@@H](O[C@@H]2O[C@H](C)C[C@H](N(C)C)[C@H]2O)[C@](C)(OC)C[C@@H](C)C(=O)[C@H](C)[C@H]2N(CCCCn3cnc(-c4cccnc4)c3)C(=O)O[C@]12C" on Streptococcus pneumoniae.
Output: 0.016

Input: Output reported MIC of the molecule "C[C@@H](O)[C@H]1C(=O)N2C(C(=O)O)=C(S[C@H]3CC[S@@+]([O-])C3)S[C@H]12" on Streptococcus pneumoniae.
Output: 0.5

Input: Output reported MIC of the molecule "C[C@@H](O)[C@H]1C(=O)N2C(C(=O)O)=C(S[C@@H]3CN[C@H](C(=O)Nc4cccc(C(=O)O)c4)C3)[C@H](C)[C@H]12" on Streptococcus pneumoniae.
Output: 0.5

Input: Output reported MIC of the molecule "C[C@@H](O)[C@H]1C(=O)N2C(C(=O)O)=C(S[C@@H]3CN[C@H](C(=O)N(C)C)C3)[C@H](C)[C@H]12" on Streptococcus pneumoniae.
Output: 0.5

Input: Output reported MIC of the molecule "CO/N=C(\C(=O)N[C@@H]1C(=O)N2C(C(=O)O)=C(CSc3nc(=O)c(O)nn3C)CS[C@H]12)c1csc(N)n1" on Streptococcus pneumoniae.
Output: 1

Input: Output reported MIC of the molecule "C=CC1=C(C(=O)O)N2C(=O)[C@@H](NC(=O)/C(=N\O)c3csc(N)n3)[C@H]2SC1" on Streptococcus pneumoniae.
Output: 4

Input: Output reported MIC of the molecule "COCC1=C(C(=O)O)N2C(=O)[C@@H](NC(=O)/C(=N\OC)c3csc(N)n3)[C@H]2SC1" on Streptococcus pneumoniae.
Output: 2
